System: ATP;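 further: ATP exposure 15 min at 22 °C before imaging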
Experiment: switch fluorescence ratio, 500 uM ATP over buffer (Cy3 cluster intensity, sum of 5 cycles each) (fold (ratio)); higher = stronger signal-on switching upon ATP binding; sequences stand for … in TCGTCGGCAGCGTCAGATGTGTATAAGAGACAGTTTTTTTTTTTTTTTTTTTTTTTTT…TC
Conditions: aptamer strand: ATP DNA aptamer (quencher-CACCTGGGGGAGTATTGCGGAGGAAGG + anchor), 100 nM annealed; ATP concentration: 500 uM
MEASUREMENT KIND: switch fluorescence ratio

Examples with their reported switch fluorescence ratio follow.
>>> print(df.to_string())
   sequence_content  target_entity           measurement_kind  result
0        TGATTTTGCC            ATP  switch fluorescence ratio    1.01
1        CGAGCATGTA            ATP  switch fluorescence ratio    1.17
2        TAATTGGGTT            ATP  switch fluorescence ratio       1
3        GGGGGACCTA            ATP  switch fluorescence ratio   0.946
4        TATGGGGGCT            ATP  switch fluorescence ratio    1.04
5        TCCCTACTGT            ATP  switch fluorescence ratio    1.02

Query: Recall the recorded switch fluorescence ratio for ACGTCATAGT with ATP and state it.
Reply: 1.14

Query: Recall the recorded switch fluorescence ratio for TGACTTGGG with ATP and state it.
Reply: 0.935

Query: Please state recorded switch fluorescence ratio (tested on ATP) of TTCAGTTCGA;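 further: ATP exposure 15 min at 22 °C before imaging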
Reply: 0.997

Query: Lab note: need switch fluorescence ratio for ATCGGTAATT on ATP, anyone have it?
Reply: 0.997

Query: Under ATP: switch fluorescence ratio value of TTGGGTAGAA ?
Reply: 0.986

====

Readings of switch fluorescence ratio for the listed sequences
Test system: ATP;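 further: ATP exposure 15 min at 22 °C before imaging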
Assay: switch fluorescence ratio, 500 uM ATP over buffer (Cy3 cluster intensity, sum of 5 cycles each) (fold (ratio)); higher = stronger signal-on switching upon ATP binding; sequences stand for … in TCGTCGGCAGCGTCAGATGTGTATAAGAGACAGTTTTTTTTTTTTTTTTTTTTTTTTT…TC
Settings: aptamer strand: ATP DNA aptamer (quencher-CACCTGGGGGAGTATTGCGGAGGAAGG + anchor), 100 nM annealed; ATP concentration: 500 uM
API note: the answer field is a bare number with no unit suffix.

Some sequences with known switch fluorescence ratio results, for comparison:
>>> print(df.to_string())
   sequence_content  quantitative_readout
0        GTCGGTATTA                 0.984
1        TGCAAGGGCG                 0.981
2        GAGTCGGATG                 0.967
3        GGCACAGATT                  1.01
4        CGCGCCGGGC                  1.03
5        CCAGGAACGA                 0.986
6        GATCTTTTTT                  1.02
7        TCGTAATGTG                  1.03

Query: Given the entry TTGTTATGGT , report its measured switch fluorescence ratio.
Reply: 1

Query: Need switch fluorescence ratio of TTGGGTTAAC , thanks.
Reply: 0.974

Query: I have this sequence here, GGGTGCGGAC , and I need its recorded switch fluorescence ratio.
Reply: 1.01

Query: For the sequence shown here, GGGTTACGGG , give the reported switch fluorescence ratio.
Reply: 1.01

Query: Give the measured switch fluorescence ratio of ATCTAGGGTC .
Reply: 1.01

Query: Name the reported switch fluorescence ratio value associated with the sequence TAGGGGAAAA
Reply: 1.02

====

Tested on: ATP;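 further: ATP exposure 15 min at 22 °C before imaging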
Assay: switch fluorescence ratio, 500 uM ATP over buffer (Cy3 cluster intensity, sum of 5 cycles each) (fold (ratio)); higher = stronger signal-on switching upon ATP binding; sequences stand for … in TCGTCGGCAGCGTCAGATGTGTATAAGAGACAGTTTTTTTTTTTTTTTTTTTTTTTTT…TC
Settings: aptamer strand: ATP DNA aptamer (quencher-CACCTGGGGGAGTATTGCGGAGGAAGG + anchor), 100 nM annealed; ATP concentration: 500 uM
MEASUREMENT KIND: switch fluorescence ratio
Output spec: single numeric token, no unit.

Past entries and their recorded results:
In [3]: df
Out[3]:
   sequence_content  quantitative_readout
0        TTTTTAGGAG                     1
1        TTAACGGGTT                  1.02
2        TTGAAGGAGA                  1.01
3        TTAACCGGGG                  1.13
4        AGCCGTTGAG                 0.992

Query: Notebook: pull reported switch fluorescence ratio for ATP, entry GAACAAAGGG
Reply: 0.988

Query: What value of switch fluorescence ratio on ATP does GGATCCATTC have?
Reply: 0.972

Query: Find the measured switch fluorescence ratio: item AGGGGACTTG , target or system ATP.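 Further: ATP exposure 15 min at 22 °C before imaging.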
Reply: 1.01

Query: What switch fluorescence ratio appears in the records for this sequence with ATP? TGGGGAGAAC
Reply: 1.06

====

Reported switch fluorescence ratio is given for each of the following sequences.
Test system: ATP;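 further: ATP exposure 15 min at 22 °C before imaging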
Experiment: switch fluorescence ratio, 500 uM ATP over buffer (Cy3 cluster intensity, sum of 5 cycles each) (fold (ratio)); higher = stronger signal-on switching upon ATP binding; sequences stand for … in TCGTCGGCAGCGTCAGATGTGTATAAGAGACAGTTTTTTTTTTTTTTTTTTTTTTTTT…TC
Settings: aptamer strand: ATP DNA aptamer (quencher-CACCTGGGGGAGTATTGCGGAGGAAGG + anchor), 100 nM annealed; ATP concentration: 500 uM
Reply with just the number.

The examples below pair each entry with its known result.
>>> print(df.to_string())
   sequence_content           measurement_kind  quantitative_readout
0        GCGTGAGCGA  switch fluorescence ratio                 0.985
1        GAAGGAAGAG  switch fluorescence ratio                  1.03
2        GTGAAAACGT  switch fluorescence ratio                  1.04
3        GAAATACTTT  switch fluorescence ratio                  1.03
4        TAAGTTGGTG  switch fluorescence ratio                 0.976
5        GCGGGGGTTA  switch fluorescence ratio                 0.994

Query: API: value(readout= switch fluorescence ratio, system= ATP, query= TAATGGTATG );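 further: ATP exposure 15 min at 22 °C before imaging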
Reply: 0.982

Query: What is its switch fluorescence ratio for ATP? Entry: ATTGATTCGG
Reply: 0.999

Query: Fill in the recorded switch fluorescence ratio for this sequence, with ATP as test system: AACTGCAATT
Reply: 2

Query: Notebook entry, ATP assay: switch fluorescence ratio of ACTTCAGCAG = ?
Reply: 1.12

Query: ATP / switch fluorescence ratio / TTATAACTTT : value?
Reply: 1.02

Query: Query the reported switch fluorescence ratio for ATP; item: AGTACTGGCA
Reply: 1.04

Query: Query switch fluorescence ratio on ATP for ATTTTCATGG
Reply: 0.954

Query: Any idea what switch fluorescence ratio came out for TTAGAAAGTC on ATP?
Reply: 1.64

Query: // fetch ATP switch fluorescence ratio for TTTTGTTTAT
Reply: 1.01

Query: # value lookup — system ATP, readout switch fluorescence ratio, item CGATGTTTTC;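 further: ATP exposure 15 min at 22 °C before imaging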
Reply: 1.03

Query: Form field - read-out: switch fluorescence ratio; system: ATP; submitted item: AGGTTTGTTT;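 further: ATP exposure 15 min at 22 °C before imaging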
Reply: 0.976

Query: Which switch fluorescence ratio is reported with ATP for this entry: CGTTTATTTT ?
Reply: 1.01

Query: Recorded switch fluorescence ratio for GGATTTACGG with ATP, please?
Reply: 1

Query: Kindly state the measured switch fluorescence ratio obtained for GTATTGGGGG with ATP.
Reply: 1.01

====

Tested on: ATP;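 further: ATP exposure 15 min at 22 °C before imaging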
Assay: switch fluorescence ratio, 500 uM ATP over buffer (Cy3 cluster intensity, sum of 5 cycles each) (fold (ratio)); higher = stronger signal-on switching upon ATP binding; sequences stand for … in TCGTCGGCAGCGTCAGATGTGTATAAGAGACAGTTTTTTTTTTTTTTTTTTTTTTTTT…TC
Settings: aptamer strand: ATP DNA aptamer (quencher-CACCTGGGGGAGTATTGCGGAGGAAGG + anchor), 100 nM annealed; ATP concentration: 500 uM
MEASUREMENT KIND: switch fluorescence ratio
Reply with just the number.

>>> df
   sequence_content  quantitative_readout
0        TTCATCCGTA                  1.39
1        CGGTCGGAGG                 0.974
2        TTAACTTCGG                 0.971

Query: Please tell me: switch fluorescence ratio of ATGGGGCTTG , system ATP?;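 further: ATP exposure 15 min at 22 °C before imaging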
Reply: 1.05

Query: Entry AGGGGTTGTG , system ATP: what switch fluorescence ratio was measured?;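 further: ATP exposure 15 min at 22 °C before imaging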
Reply: 1

Query: Under ATP: switch fluorescence ratio value of ACTGTTGTTG ?
Reply: 1.01
